# TGT: Serotonin 1 (5-HT1) receptor (Rattus norvegicus) (UniProt P28564+P30940+P19327+P28565)
# MEASUREMENT NOTES: Binding affinity towards serotonin S1 receptor at 1.0 uM
# Format: protein assay
MEASURED QUANTITY: inhibition (%)
Give bare numbers, in %.

Recorded results for 2 molecules are shown here.
Br.Fc1ccc([C@@H]2CN3CCC[C@H]3c3cc(F)ccc32)cc1 = -9
Br.Nc1ccc([C@@H]2CN3CCC[C@H]3c3ccccc32)cc1 = 36

Could you now consider this next molecule?
Req: Requested field: inhibition. Item: CSc1ccc([C@@H]2CN3CCC[C@@H]3c3ccccc32)cc1 (stereo in doubt; (+)-48b)
Resp: 31
